Recorded values, source patent US5989844A.

Target: CYP2D6 (Homo sapiens, UniProt P10635)
Sequence (P10635 whole entry): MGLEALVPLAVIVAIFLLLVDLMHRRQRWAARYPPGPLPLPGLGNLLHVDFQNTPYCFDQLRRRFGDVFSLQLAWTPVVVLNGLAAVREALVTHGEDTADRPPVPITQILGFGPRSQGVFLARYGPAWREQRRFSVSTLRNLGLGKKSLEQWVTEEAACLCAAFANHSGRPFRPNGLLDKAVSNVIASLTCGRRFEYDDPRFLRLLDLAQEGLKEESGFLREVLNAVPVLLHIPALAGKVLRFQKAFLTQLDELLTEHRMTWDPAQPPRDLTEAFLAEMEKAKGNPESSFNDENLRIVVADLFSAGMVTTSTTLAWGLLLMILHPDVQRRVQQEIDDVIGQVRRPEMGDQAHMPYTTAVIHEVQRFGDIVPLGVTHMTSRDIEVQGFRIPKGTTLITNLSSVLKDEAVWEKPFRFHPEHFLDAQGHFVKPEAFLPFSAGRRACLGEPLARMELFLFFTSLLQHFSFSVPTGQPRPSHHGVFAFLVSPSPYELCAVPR
Experiment: CYP2D6-mediated metabolism: substrate disappearance in PM human liver microsome HHM-0116 supplemented with recombinant CYP2D6-expressing microsome
Details: microsomes, pH 7.4, T1/2, HHM0116 + 0.5 mg/ml recombinant CYP2D6 microsome, 1 μM substrate, 60 min incubation
property: half-life at 1 µM (min)

compound: CC(C)NCC(O)COc1cccc2ccccc12 (stereo not shown) [Propranolol, propranolol]
target under test: CYP2D6 (Homo sapiens, UniProt P10635)
unit abbreviation: min
value: 15

---

Target: CYP2D6 (Homo sapiens, UniProt P10635)
Test: CYP2D6-mediated metabolism: substrate disappearance in PM human liver microsome HHM-0116 supplemented with recombinant CYP2D6-expressing microsome
Conditions: microsomes, pH 7.4, T1/2, HHM0116 + 0.1 mg/ml recombinant CYP2D6 microsome, 1 μM substrate, 60 min incubation
property: half-life at 1 µM (h)

compound: CC(C)NCC(O)COc1cccc2ccccc12 (stereo not shown)
property: half-life at 1 µM
value: 1.17
